system: hyper-permeable E. coli 901C
# Lookup of reported MIC keyed by entry

compound: O=C(N[C@H]1Cc2cccc(C(=O)O)c2OB1O)/C(=N\O)c1csc(NCCO)n1 [Example 102]
MIC: > 128 µg/mL

compound: Nc1nc(/C(=N/O)C(=O)N[C@H]2Cc3cc(CCC(=O)O)cc(C(=O)O)c3OB2O)cs1 [Example 37]
MIC: < 64 µg/mL

Enquiry: Provide MIC value for the following compound: Nc1nc(/C(=N/OCCF)C(=O)N[C@H]2Cc3cccc(C(=O)O)c3OB2O)cs1 [Example 113]
Return: < 64 µg/mL

Enquiry: Provide MIC value for the following compound: CNc1nc(/C(=N/O)C(=O)N(C)[C@H]2Cc3cccc(C(=O)O)c3OB2O)cs1 [Example 22]
Return: > 128 µg/mL

Enquiry: Provide MIC value for the following compound: Nc1nc(/C(=N/O)C(=O)N[C@H]2Cc3c(F)c(F)cc(C(=O)O)c3OB2O)cs1 [Example 40]
Return: > 128 µg/mL

Enquiry: Provide MIC value for the following compound: Nc1cc(/C(=N\O)C(=O)N[C@H]2Cc3cccc(C(=O)O)c3OB2O)ccn1 [Example 15]
Return: > 128 µg/mL

Enquiry: Provide MIC value for the following compound: N=C(N)c1ccc(OCCO/N=C(\C(=O)N[C@H]2Cc3cccc(C(=O)O)c3OB2O)c2csc(N)n2)cc1 [Example 55]
Return: < 64 µg/mL

---

tested on: hyper-permeable E. coli 901C; experiment: Broth microdilution MIC assay, hyper-permeable E. coli; type: cell-based; settings: Escherichia coli, read-out: E. coli 901C MIC
reportedProperty: MIC

compound: Nc1nc(/C(=N/O)C(=O)N[C@H]2Cc3cccc(C(=O)O)c3OB2O)cs1
MIC: < 64 µg/mL
//
compound: O=C(N[C@H]1Cc2cccc(C(=O)O)c2OB1O)/C(=N\O)c1csc(NCCc2ccccn2)n1
MIC: > 128 µg/mL
//
compound: CC(C)(O/N=C(\C(=O)N[C@H]1Cc2cccc(C(=O)O)c2OB1O)c1csc(N)n1)C(=O)NCC(=O)O
MIC: < 64 µg/mL
//
compound: O=C(N[C@H]1Cc2cccc(C(=O)O)c2OB1O)/C(=N\O)c1csc(S)n1
MIC: > 128 µg/mL
//
compound: CC(O/N=C(\C(=O)N[C@H]1Cc2cccc(C(=O)O)c2OB1O)c1csc(N)n1)C(N)=O (stereo partly drawn)
MIC: < 64 µg/mL

Enquiry: Provide MIC value for the following compound: "N=C(NC1CCNCC1)c1ccc(OCCO/N=C(\C(=O)N[C@H]2Cc3cccc(C(=O)O)c3OB2O)c2csc(N)n2)cc1"
Return: < 64 µg/mL

Enquiry: Provide MIC value for the following compound: "CN(C)C(=O)CO/N=C(\C(=O)N[C@H]1Cc2cccc(C(=O)O)c2OB1O)c1csc(N)n1"
Return: < 64 µg/mL

Enquiry: Provide MIC value for the following compound: "NC(=O)CO/N=C(\C(=O)N[C@H]1Cc2cccc(C(=O)O)c2OB1O)c1csc(N)n1"
Return: < 64 µg/mL

Enquiry: Provide MIC value for the following compound: "CCCO/N=C(\C(=O)N[C@H]1Cc2cccc(C(=O)O)c2OB1O)c1csc(N)n1"
Return: < 64 µg/mL

---

Record set of MIC for target or system hyper-permeable E. coli 901C.

Enquiry: GET MIC | system: hyper-permeable E. coli 901C | item: "O=C(N[C@H]1Cc2cccc(C(=O)O)c2OB1O)/C(Cn1nccn1)=N\O"
Return: > 128 µg/mL

Enquiry: GET MIC | system: hyper-permeable E. coli 901C | item: "Nc1nc(/C(=N/OCCOc2ccccc2)C(=O)N[C@H]2Cc3cccc(C(=O)O)c3OB2O)cs1"
Return: < 64 µg/mL
